test system: panel of breast cancer cell lines; assay: Compound A with targeted agents and chemotherapies, 72-hour in vitro proliferation assays; assay type: cell-based; conditions: HCC70; compound A × partner, 72-hour proliferation
Observable: Best CI
Give bare numbers.

Count: 3. Required value per item: Best CI.
1. CCOc1cc2ncc(C#N)c(Nc3ccc(OCc4ccccn4)c(Cl)c3)c2cc1NC(=O)/C=C/CN(C)C [Neratinib]
2. CC(=O)O[C@H]1C(=O)[C@@]2(C)[C@H]([C@H](OC(=O)c3ccccc3)[C@]3(O)C[C@H](OC(=O)[C@H](O)[C@@H](NC(=O)c4ccccc4)c4ccccc4)C(C)=C1C3(C)C)[C@]1(OC(C)=O)CO[C@@H]1C[C@@H]2O [Paclitaxel, reference compound]
3. CC(=O)c1c(C)c2cnc(Nc3ccc(N4CCNCC4)cn3)nc2n(C2CCCC2)c1=O [PD-0332991]

1: 0.09; 2: 0.14; 3: 0.68

----------
system: panel of breast cancer cell lines; test: Compound A with targeted agents and chemotherapies, 72-hour in vitro proliferation assays; type: cell-based; settings: KPL-1; compound A × partner, 72-hour proliferation
Observable: Bliss Volume
Answers are plain numbers.

Check out these entries, answers already filled in.
{"columns": ["Compound", "Recorded Value"],
 "data": [
  ["Cn1ncnc1[C@H]1c2n[nH]c(=O)c3cc(F)cc(c23)N[C@@H]1c1ccc(F)cc1", "−2.58"],
  ["CN(C)C(=O)c1cc2cnc(Nc3ccc(N4CCNCC4)cn3)nc2n1C1CCCC1", 0.36]
]}

// field: Bliss Volume; key: "Cc1c(-c2ccc(N3CCc4cccc(C(=O)Nc5nc6ccccc6s5)c4C3)nc2C(=O)O)cnn1CC12CC3CC(CC(C3)C1)C2" ; value = 26.84

----------
test system: panel of breast cancer cell lines; experiment: Compound A with targeted agents and chemotherapies, 72-hour in vitro proliferation assays; format: cell-based; settings: ZR-75-30 cells; combination of compound A with the named agent; 72-hour proliferation
Structures can show the parent of a compound that is named as a salt.
Label TRUE when Best CI is at or above 0.4; otherwise label FALSE.

// below: answered compounds
{"columns": ["Compound", "Qualitative Label"],
 "data": [
  ["N.N.O=C([O-])C1(C(=O)[O-])CCC1.[Pt+2]", "FALSE"],
  ["N.N.[Cl][Pt][Cl] [Cisplatin]", "FALSE"],
  ["CC/C(=C(\\c1ccccc1)c1ccc(OCCN(C)C)cc1)c1ccccc1 [Tamoxifen Citrate]", "TRUE"]
]}

We now examine a further compound.
Determine whether measured Best CI meets or exceeds 0.4 for CS(=O)(=O)CCNCc1ccc(-c2ccc3ncnc(Nc4ccc(OCc5cccc(F)c5)c(Cl)c4)c3c2)o1 [Lapatinib Ditosylate]
FALSE

----------
Exercise: for every item that follows, state its recorded Bliss Volume.
system: panel of breast cancer cell lines; assay: Compound A with targeted agents and chemotherapies, 72-hour in vitro proliferation assays; type: cell-based; conditions: ZR-75-1 cells; combination of compound A with the named agent; 72-hour proliferation
One number for each entry.

These recorded examples may help you get a feel for the data.
{"columns": ["Compound", "Bliss Volume"],
 "data": [
  ["N.N.[Cl][Pt][Cl] [Cisplatin]", 9.45],
  ["N.N.O=C([O-])C1(C(=O)[O-])CCC1.[Pt+2]", 4.99],
  ["CC(=O)O[C@@]12CO[C@@H]1C[C@H](O)[C@@]1(C)C(=O)[C@H](O)C3=C(C)[C@@H](OC(=O)[C@H](O)[C@@H](NC(=O)OC(C)(C)C)c4ccccc4)C[C@@](O)([C@@H](OC(=O)c4ccccc4)[C@H]21)C3(C)C", 16.15],
  ["C[C@]12CC[C@@H]3c4ccc(O)cc4C[C@@H](CCCCCCCCC[S+]([O-])CCCC(F)(F)C(F)(F)F)[C@H]3[C@@H]1CC[C@@H]2O (some centres unmarked)", 5.80]
]}

Consider now this further compound.
# Bliss Volume (compound: "CO[C@H]1C[C@@H]2CC[C@@H](C)[C@@](O)(O2)C(=O)C(=O)N2CCCC[C@H]2C(=O)O[C@H]([C@H](C)C[C@@H]2CC[C@@H](OCCO)[C@H](OC)C2)CC(=O)[C@H](C)/C=C(\C)[C@@H](O)[C@@H](OC)C(=O)[C@H](C)C[C@H](C)/C=C/C=C/C=C/1C" ) is 3.52

----------
test system: panel of breast cancer cell lines; assay: Compound A with targeted agents and chemotherapies, 72-hour in vitro proliferation assays; assay type: cell-based; conditions: HCC1569; compound A × partner, 72-hour proliferation
Structures can show the parent of a compound that is named as a salt.
Label Yes when HSA volume is strictly below 5; otherwise label No.

A record lists "CN(C)C(=O)c1cc2cnc(Nc3ccc(N4CCNCC4)cn3)nc2n1C1CCCC1" . Is its HSA volume below 5?
Yes

Hi there! Is HSA volume for "Cc1c(-c2ccc(N3CCc4cccc(C(=O)Nc5nc6ccccc6s5)c4C3)nc2C(=O)O)cnn1CC12CC3CC(CC(C3)C1)C2" below 5, do you know?
No

Quick check: HSA volume of "O=C(c1cc(Cc2n[nH]c(=O)c3ccccc23)ccc1F)N1CCN(C(=O)C2CC2)CC1" under 5?
No

State whether 5 exceeds HSA volume recorded for "CC1(C)CCC(c2ccc(Cl)cc2)=C(CN2CCN(c3ccc(C(=O)NS(=O)(=O)c4ccc(N[C@H](CCN5CCOCC5)CSc5ccccc5)c(S(=O)(=O)C(F)(F)F)c4)cc3)CC2)C1" .
No

Hi there! Is HSA volume for "CCN1CCN(Cc2ccc(Nc3ncc(F)c(-c4cc(F)c5nc(C)n(C(C)C)c5c4)n3)nc2)CC1" below 5, do you know?
No

Please let me know if N.N.[Cl][Pt][Cl] [Cisplatin] shows HSA volume below 5.
Yes

Consider the compound "N.N.O=C([O-])C1(C(=O)[O-])CCC1.[Pt+2]" . Is its HSA volume strictly less than 5?
Yes

I wonder whether Nc1ccn([C@@H]2O[C@H](CO)[C@@H](O)C2(F)F)c(=O)n1 [Gemcitabine Hydrochloride] has HSA volume below 5. Can you tell?
No

----------
For each entry below, report its Best CI value.
tested on: panel of breast cancer cell lines; test: Compound A with targeted agents and chemotherapies, 72-hour in vitro proliferation assays; assay type: cell-based; details: CAMA-1 cell line; compound A × partner; 72-hour proliferation
Where a name gives a salt, the structure may show the parent alone.
Answers are plain numbers.

Example cases with answers are listed next.
{"columns": ["Compound", "Best CI"],
 "data": [
  ["Nc1ccn([C@@H]2O[C@H](CO)[C@@H](O)C2(F)F)c(=O)n1 [Gemcitabine Hydrochloride]", 0.06],
  ["N.N.O=C([O-])C1(C(=O)[O-])CCC1.[Pt+2]", 0.46],
  ["CN(C)C(=O)c1cc2cnc(Nc3ccc(N4CCNCC4)cn3)nc2n1C1CCCC1", 0.73]
]}

Fill in Best CI for each of the 3 compounds listed.
1. CCOc1cc2ncc(C#N)c(Nc3ccc(OCc4ccccn4)c(Cl)c3)c2cc1NC(=O)/C=C/CN(C)C
2. Cn1ncnc1[C@H]1c2n[nH]c(=O)c3cc(F)cc(c23)N[C@@H]1c1ccc(F)cc1
3. CC(=O)c1c(C)c2cnc(Nc3ccc(N4CCNCC4)cn3)nc2n(C2CCCC2)c1=O

1: 0.40; 2: 0.44; 3: 0.49

For each of the items listed, what is its Best CI?
1. N.N.[Cl][Pt][Cl] [Cisplatin]
2. CS(=O)(=O)CCNCc1ccc(-c2ccc3ncnc(Nc4ccc(OCc5cccc(F)c5)c(Cl)c4)c3c2)o1 [Lapatinib Ditosylate]
3. Cc1c(-c2ccc(N3CCc4cccc(C(=O)Nc5nc6ccccc6s5)c4C3)nc2C(=O)O)cnn1CC12CC3CC(CC(C3)C1)C2
4. CC1(C)CCC(CN2CCN(c3ccc(C(=O)NS(=O)(=O)c4ccc(NCC5CCOCC5)c([N+](=O)[O-])c4)c(Oc4cnc5[nH]ccc5c4)c3)CC2)=C(c2ccc(Cl)cc2)C1

1. 0.23
2. 0.90
3. 0.02
4. 0.38

----------
test system: panel of breast cancer cell lines; experiment: Compound A with targeted agents and chemotherapies, 72-hour in vitro proliferation assays; format: cell-based; conditions: HCC1806; compound A × partner, 72-hour proliferation
Where a name gives a salt, the structure may show the parent alone.
Observable: Best CI

{"columns": ["Molecule", "Best CI"],
 "data": [
  ["CC(=O)O[C@H]1C(=O)[C@@]2(C)[C@H]([C@H](OC(=O)c3ccccc3)[C@]3(O)C[C@H](OC(=O)[C@H](O)[C@@H](NC(=O)c4ccccc4)c4ccccc4)C(C)=C1C3(C)C)[C@]1(OC(C)=O)CO[C@@H]1C[C@@H]2O [Paclitaxel, reference compound]", 0.10],
  ["CC1(C)CCC(c2ccc(Cl)cc2)=C(CN2CCN(c3ccc(C(=O)NS(=O)(=O)c4ccc(N[C@H](CCN5CCOCC5)CSc5ccccc5)c(S(=O)(=O)C(F)(F)F)c4)cc3)CC2)C1", 0.03]
]}

Briefly, Best CI measured for CC/C(=C(\c1ccccc1)c1ccc(OCCN(C)C)cc1)c1ccccc1 [Tamoxifen Citrate] : 0.84
